All figures here come from patent US20220296595A1.

Recorded pIC50 values for a group of compounds are listed next.
Assayed system: CDK2/CyclinE1 (Homo sapiens)
Construct: purchased SignalChem C29-18G
Test details: Assay for inhibition of CDK2/CyclinE1 (Caliper microfluidic kinase assay)
Format: biochemical
Test context: CDK2/CyclinE1, 100 μM ATP; read-out: CDK2 IC50
pIC50: −log10 of the molar value.

| Compound | pIC50 |
| --- | --- |
| CC(C)c1cnn2ccc(-c3nc(Nc4ccc(N5CCN(C6CC6)CCC5=O)cn4)ncc3F)cc12 [Synthetic Example 49] | 6.00 to 7.00 |
| COc1cc(N2CCCC(N)C2=O)ccc1Nc1nccc(-c2ccn3ncc(C(C)C)c3c2)n1 (stereo not shown) [compound 222] | 7.00 to 8.00 |
| CC(C)c1cnn2ccc(-c3nc(Nc4ccc(N5CCNCC5=O)cn4)ncc3F)cc12 [Synthetic Example 29] | 7.00 to 8.00 |
| CC(C)n1cnc2c(F)nc(-c3ccnc(Nc4ccc(N5CCC(N(C)C)CC5=O)cc4)n3)cc21 (stereo not shown) [compound 281] | > 8.00 |
| COc1nc(-c2nc(Nc3ccc(N4CCN(C5CNC5)CC4=O)cn3)ncc2F)cc2c1nc(C)n2C(C)C [Synthetic Example 138] | 6.00 to 7.00 |
| CC1CN(c2ccc(Nc3ncc(F)c(-c4ccn5ncc(C(C)C)c5c4)n3)nc2)C(=O)CCN1 (stereo not shown) [compound 194] | 7.00 to 8.00 |
| CNC1CCCN(c2ccc(Nc3nccc(-c4ccn5ncc(C(C)C)c5c4)n3)c(F)c2)C1=O (stereo not shown) [compound 231] | 7.00 to 8.00 |
